Some compounds, each annotated with its measured Papp.
experiment summary: Permeability coefficient, Kp in human Caco2 cells
Type: ADME, cell-based
recorded conditions: Caco-2, read-out: Kp

Study these solved cases before continuing.
- sample smiles: "NC(=O)c1cccc([C@H]2C[C@H]3CC[C@@H](C2)N3CCN(CC2CCC2)C(=O)CO)c1"
  Papp: "14 ×10⁻⁶ cm/s"
- sample smiles: "C[C@H]1CN(C[C@H](Cc2ccccc2)C(=O)O)CC[C@@]1(C)c1cccc(O)c1"
  Papp: "5 ×10⁻⁶ cm/s"
- sample smiles: "NC(=O)c1cccc([C@H]2C[C@H]3CC[C@@H](C2)N3CCN(CC2CCOCC2)C(=O)CO)c1"
  Papp: "< 1 ×10⁻⁶ cm/s"

From here, focus on the item given below.
Q) Kindly indicate its recorded Papp. Item: NC(=O)c1cccc([C@H]2C[C@H]3CC[C@@H](C2)N3CCN(CCCc2ccccc2)C(=O)CO)c1
A) 26 ×10⁻⁶ cm/s
